Values were extracted from patent US8426437B2.

target: RET (Homo sapiens, UniProt P07949); test: Inhibition of RET kinase activity, recombinant RET method (Kinase-Glo); settings: RET 2 μg/ml, poly-EY4 substrate, 20 μM ATP, two hours at 30° C.
Sequence (P07949 29-1114): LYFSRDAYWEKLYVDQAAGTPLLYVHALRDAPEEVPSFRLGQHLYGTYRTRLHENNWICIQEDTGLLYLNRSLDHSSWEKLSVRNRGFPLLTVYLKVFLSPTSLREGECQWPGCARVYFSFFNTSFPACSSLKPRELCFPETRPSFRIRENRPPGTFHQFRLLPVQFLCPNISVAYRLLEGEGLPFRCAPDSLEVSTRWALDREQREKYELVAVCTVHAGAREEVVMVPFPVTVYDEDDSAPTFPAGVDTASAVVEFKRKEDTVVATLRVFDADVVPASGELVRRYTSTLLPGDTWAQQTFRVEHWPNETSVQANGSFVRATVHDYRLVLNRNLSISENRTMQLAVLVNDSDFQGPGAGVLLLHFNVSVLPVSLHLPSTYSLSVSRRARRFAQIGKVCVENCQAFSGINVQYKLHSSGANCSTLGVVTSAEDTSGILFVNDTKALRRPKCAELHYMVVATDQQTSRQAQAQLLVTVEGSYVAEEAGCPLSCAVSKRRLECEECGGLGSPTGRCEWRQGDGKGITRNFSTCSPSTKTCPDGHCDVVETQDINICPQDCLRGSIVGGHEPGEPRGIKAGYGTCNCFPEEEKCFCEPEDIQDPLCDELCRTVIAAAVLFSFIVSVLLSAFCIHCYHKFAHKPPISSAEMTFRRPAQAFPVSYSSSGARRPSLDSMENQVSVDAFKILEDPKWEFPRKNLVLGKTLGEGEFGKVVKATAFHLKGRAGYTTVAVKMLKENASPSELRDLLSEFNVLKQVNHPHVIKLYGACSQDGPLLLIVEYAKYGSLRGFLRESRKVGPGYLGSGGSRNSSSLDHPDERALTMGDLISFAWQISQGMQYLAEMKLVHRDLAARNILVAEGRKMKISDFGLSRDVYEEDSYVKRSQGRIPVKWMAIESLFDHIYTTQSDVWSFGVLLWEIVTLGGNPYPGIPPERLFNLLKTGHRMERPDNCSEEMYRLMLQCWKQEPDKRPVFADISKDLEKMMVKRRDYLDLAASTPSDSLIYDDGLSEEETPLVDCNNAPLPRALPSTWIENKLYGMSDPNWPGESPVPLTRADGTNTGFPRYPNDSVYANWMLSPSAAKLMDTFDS
Where a name gives a salt, the structure may show the parent alone.
EXPERIMENTAL READOUT: IC50

Some compounds with known IC50 results, for comparison:
| COMPOUND | IC50 |
| --- | --- |
| CCOC(=O)c1c[nH]c2c(=O)[nH]c3ccc(S(=O)(=O)N(C)CCc4ccccc4)cc3c12 [Compound 25] | 1 to 10 µM |
| C#CCN(CCNC)S(=O)(=O)c1ccc2[nH]c(=O)c3[nH]cc(C(=O)OCCC)c3c2c1 [Compound 156, hydrochloride] | < 0.1 µM |
| O=C(Nc1ccccc1)c1c[nH]c2c(=O)[nH]c3ccccc3c12 [Compound 87] | 10 to 100 µM |
| CCCOC(=O)c1c[nH]c2c(=O)[nH]c3ccc(S(=O)(=O)N(C[C@H]4CCCN4C)C4CC4)cc3c12 [Compound 146] | 0.1 to 1 µM |
| C#CCN(CCNC(C)C)S(=O)(=O)c1ccc2[nH]c(=O)c3[nH]cc(C(=O)OCCC)c3c2c1 [Compound 158, hydrochloride] | 0.1 to 1 µM |

Task item: Please give the measured IC50 for this compound: CCCOC(=O)c1c[nH]c2c(=O)[nH]c3ccc(S(=O)(=O)N(C)CCN(C)C(=O)OC(C)(C)C)cc3c12 [Compound 140]
Reply: 1 to 10 µM

Task item: Returns the measured IC50 for the input compound. Input: CN(C)C(=O)c1c[nH]c2c(=O)[nH]c3ccccc3c12 [Compound 89]
Reply: 10 to 100 µM

Task item: What value of IC50 has been recorded for this entry: CCOC(=O)c1c[nH]c2c(=O)[nH]c3ccc(S(=O)(=O)Nc4ccc(N5CCOCC5)cc4)cc3c12 [Compound 22]
Reply: 10 to 100 µM

====

molecular target: RET (Homo sapiens); assay: Inhibition of RET kinase activity, recombinant RET method (Kinase-Glo); conditions: RET 2 μg/ml, poly-EY4 substrate, 20 μM ATP, two hours at 30° C.
pIC50: −log10 of the molar value.
EXPERIMENTAL READOUT: pIC50

# annotated cases, reported pIC50 shown
| SMILES TEXT | pIC50 |
| --- | --- |
| CCOC(=O)c1c[nH]c2c(=O)[nH]c3ccc([N+](=O)[O-])cc3c12 | 5.00 to 6.00 |
| CCOC(=O)c1c[nH]c2c(=O)[nH]c3ccc(C(=O)CN4CCOCC4)cc3c12 | 5.00 to 6.00 |

As a next step, examine the compound that follows.
Task item: Reported pIC50 for CCOC(=O)c1c[nH]c2c(=O)[nH]c3ccc(-c4ccccc4NS(C)(=O)=O)cc3c12 : what is it?
Reply: 6.00 to 7.00

====

biological target: RET (Homo sapiens); assay: Inhibition of RET kinase activity, recombinant RET method (Kinase-Glo); conditions: RET 2 μg/ml, poly-EY4 substrate, 20 μM ATP, two hours at 30° C.
pIC50: −log10 of the molar value.
The entries below come with measured pIC50 values attached.

| COMPOUND | pIC50 |
| --- | --- |
| CCCN(C)C(=O)c1c[nH]c2c(=O)[nH]c3ccc(S(=O)(=O)N(C)C)cc3c12 [Compound 110] | 4.00 to 5.00 |
| CCOC(=O)c1c[nH]c2c(=O)[nH]c3ccc(S(=O)(=O)NC4CN5CCC4CC5)cc3c12 (centres unmarked) [Compound 94] | 6.00 to 7.00 |
| C#CCN(CCN(C)C(=O)OC(C)(C)C)S(=O)(=O)c1ccc2[nH]c(=O)c3[nH]cc(C(=O)OCCC)c3c2c1 [Compound 157] | > 7.00 |

Task item: Which measured pIC50 value corresponds to CCCOC(=O)c1c[nH]c2c(=O)[nH]c3ccc(S(=O)(=O)N(C)CC(=O)OC(C)(C)C)cc3c12 [Compound 183] ?
Reply: 5.00 to 6.00

Task item: What pIC50 value was documented for this compound, CC(=O)c1c[nH]c2c(=O)[nH]c3ccccc3c12 [Compound 77] ?
Reply: 4.00 to 5.00

====

biological target: RET (Homo sapiens, UniProt P07949); experiment: Inhibition of RET kinase activity, recombinant RET method (Kinase-Glo); conditions: RET 2 μg/ml, poly-EY4 substrate, 20 μM ATP, two hours at 30° C.
pIC50: −log10 of the molar value. Structures can show the parent of a compound that is named as a salt.
molecules and their reported pIC50

Check out these entries, answers already filled in.
| MOLECULE | EXPERIMENTAL READOUT | OBSERVED |
| --- | --- | --- |
| CN(c1ccc(F)cc1)S(=O)(=O)c1ccc2[nH]c(=O)c3[nH]cc(C(=O)OCCO)c3c2c1 | pIC50 | 5.00 to 6.00 |
| CCOC(=O)c1c[nH]c2c(=O)[nH]c3ccc(C(=O)N(C[C@@H]4CCCN4)C4CC4)cc3c12 [Compound 219, hydrochloride] | pIC50 | 5.00 to 6.00 |
| CCCOC(=O)c1c[nH]c2c(=O)[nH]c3ccc(S(=O)(=O)N(CC)[C@H]4CCNC4)cc3c12 [Compound 160, hydrochloride] | pIC50 | > 7.00 |
| COC(=O)CCNC(=O)c1c[nH]c2c(=O)[nH]c3ccccc3c12 | pIC50 | 4.00 to 5.00 |
| CCOC(=O)c1c[nH]c2c(=O)[nH]c3ccc(S(=O)(=O)N(CCC#N)C4CC4)cc3c12 | pIC50 | > 7.00 |

Task item: For the molecule shown here, O=C(NCCc1c[nH]c2ccccc12)c1c[nH]c2c(=O)[nH]c3ccccc3c12 , give the reported pIC50.
Reply: 4.00 to 5.00

Task item: Which pIC50 is reported for this molecule? CCOC(=O)c1c[nH]c2c(=O)[nH]c3ccc(S(=O)(=O)N4CCC[C@H]4CN4CCCC4)cc3c12
Reply: 6.00 to 7.00

Task item: For CCCOC(=O)c1c[nH]c2c(=O)[nH]c3ccc(S(=O)(=O)N(C)C4CCS(=O)(=O)CC4)cc3c12 , what is its reported pIC50?
Reply: 5.00 to 6.00

Task item: Value lookup for pIC50; key = CCOC(=O)c1c[nH]c2c(=O)[nH]c3ccc(S(=O)(=O)Nc4ccc(OC)cc4)cc3c12
Reply: 6.00 to 7.00

Task item: Can you share its pIC50? I mean this molecule: CCOC(=O)c1ccc(NS(=O)(=O)c2ccc3[nH]c(=O)c4[nH]cc(C(=O)OCC)c4c3c2)cc1
Reply: 5.00 to 6.00

Task item: // pIC50 lookup, key: CCOC(=O)c1c[nH]c2c(=O)[nH]c3ccc(NS(=O)(=O)c4ccc(OC)cc4)cc3c12
Reply: 5.00 to 6.00

====

molecular target: UniProt P07949; test: Inhibition of RET kinase activity, recombinant RET method (Kinase-Glo); conditions: RET 2 μg/ml, poly-EY4 substrate, 20 μM ATP, two hours at 30° C.
Where a name gives a salt, the structure may show the parent alone.
EXPERIMENTAL READOUT: IC50

Here are 5 compounds together with their reported answers.
| COMPOUND | IC50 |
| --- | --- |
| O=C(NCc1ccncc1)c1c[nH]c2c(=O)[nH]c3ccccc3c12 [Compound 86] | 10000 to 100000 nM |
| CCOC(=O)c1c[nH]c2c(=O)[nH]c3ccc(-c4csc(C5CCNCC5)n4)cc3c12 [Compound 277] | 100 to 1000 nM |
| CCOC(=O)c1c[nH]c2c(=O)[nH]c3ccc(/C=C/C(=O)NCCC(=O)OC)cc3c12 [Compound 69] | 1000 to 10000 nM |
| CCOC(=O)c1c[nH]c2c(=O)[nH]c3ccc(-c4csc(Nc5ccccc5Cl)n4)cc3c12 [Compound 272] | 1000 to 10000 nM |
| CCOC(=O)c1c[nH]c2c(=O)[nH]c3ccc(S(=O)(=O)N(C)Cc4ccccc4)cc3c12 [Compound 24] | 100 to 1000 nM |

Task item: Given the compound O=C(OCc1ccccc1)c1c[nH]c2c(=O)[nH]c3ccccc3c12 [Compound 74] , what is its reported IC50?
Reply: 1000 to 10000 nM

Task item: Quick one: IC50 for CCCOC(=O)c1c[nH]c2c(=O)[nH]c3ccc(S(=O)(=O)N(C[C@@H](C)N)C4CC4)cc3c12 [Compound 155, hydrochloride] ?
Reply: < 100 nM

Task item: Look at this compound and give its reported IC50. CCOC(=O)c1c[nH]c2c(=O)[nH]c3ccc(S(=O)(=O)Nc4cccc(F)c4C)cc3c12 [Compound 16]
Reply: < 100 nM

Task item: Which value of IC50 has been reported for CN1CCC(NS(=O)(=O)c2ccc3[nH]c(=O)c4[nH]cc(C(=O)OC5CCCC5)c4c3c2)CC1 [Compound 119] in the records?
Reply: 100 to 1000 nM
